Reference source for all entries: paper PMC11195995

Parameter: pIC50. Scope: all listed entries.
- system-tested: SIRT2 (Homo sapiens)
- Sequence (Q8IXJ6 34-356): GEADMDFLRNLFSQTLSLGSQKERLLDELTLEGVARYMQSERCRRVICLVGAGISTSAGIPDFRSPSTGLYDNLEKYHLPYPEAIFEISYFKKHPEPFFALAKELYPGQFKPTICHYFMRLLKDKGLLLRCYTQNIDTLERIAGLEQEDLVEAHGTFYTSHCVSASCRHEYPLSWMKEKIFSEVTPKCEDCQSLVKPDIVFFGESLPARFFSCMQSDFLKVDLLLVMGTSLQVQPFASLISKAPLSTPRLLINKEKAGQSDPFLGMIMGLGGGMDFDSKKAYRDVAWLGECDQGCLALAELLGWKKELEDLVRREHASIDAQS
- experiment-notes: 1-aminoanthracene binding competition assay, SIRT2 alone
- test-conditions: SIRT2 only; 100 nM 1-aminoanthracene, 4 μM SIRT2
- Experimental: Competition assays where 1-aminoanthracene was displaced from SIRT2 by 2, 4, 5, and 6 were performed as previously reported where we described its displacement from SIRT2 by 3. […] Briefly, the fluorescence intensity of 100 nM 1-aminoanthracene was measured in the presence of 4 μM SIRT2 and increasing amounts of ligand using excitation/emission wavelengths of 390 nm/520 nm. As previously described, displacement of 1-aminoanthracene from SIRT2 by a competitor results in a reduction of its fluorescence. […]
pIC50: −log10 of the molar value.
measure: pIC50

>>> readout_number("Oc1ccc(Br)cc1I")
4.12
>>> readout_number("CCCCCc1ccc(C)cc1O")
4.09
